Each recorded value in this set is attributed to a melting point compilation (Tetko et al.; mined from patent text by program, amines drawn as free bases though some values may be those of a salt).

So I've got a bunch of molecules here, and I need their melting point values.

Field: example entries. Status: answers known.
{"molecule": "CC(C)C[C@@H](C=NNC(N)=O)NC(=O)[C@H](Cc1c[nH]cn1)NC(=O)C(CCCCc1ccccc1)Cc1cccc2ccccc12 (stereo partly drawn)", "melting point": "108 to 114 °C"}
{"molecule": "C[Si](C)(C)c1cc(-c2ccc(F)cc2)c(-c2ccc(F)cc2)o1", "melting point": "82 to 83 °C"}
{"molecule": "COc1ccc(C(O)Cc2ccncc2)c2c1OCC2C (stereo not drawn)", "melting point": "96 to 100 °C"}
{"molecule": "COc1ccc2cc(C(C)COC(=O)c3cc(O)c4c(c3)C(=O)c3cccc(O)c3C4=O)ccc2c1 (stereo not drawn)", "melting point": "147 to 151 °C"}
{"molecule": "CC(=O)OC1CCC2(C)C(=CCC3C2CCC2(C=CCl)C(OC(C)=O)CCC32)C1 (stereo not drawn)", "melting point": "155 to 156 °C"}
{"molecule": "OC(CCN1CCN(c2ccccc2)CC1)c1ccccc1 (stereo not drawn)", "melting point": "85 to 87 °C"}
{"molecule": "ON(Cn1nnc2ccccc21)Cn1nnc2ccccc21", "melting point": "173 to 174 °C"}
{"molecule": "COc1ccccc1N1CCCN(c2ccnc3sc(C(N)=O)c(N)c23)CC1", "melting point": "179 to 184 °C"}
{"molecule": "CC(=O)N1CCCC2=C1CCc1cc(Cl)c(Cl)cc12", "melting point": "146 to 148 °C"}
{"molecule": "O=C(Nc1ccc(Cl)c2c(Cl)ccnc12)c1c(Cl)cccc1Cl", "melting point": "243 to 247 °C"}

# per-item lookup of melting point; items listed below
1. CCCc1nc2c(N)nc3cccnc3c2n1CC1(O)CCCCC1
2. CCN(CC)C(=O)Cc1c(C)n(Cc2ccccc2)c2ccc(OCc3nc4ccccc4s3)cc12
3. CC(C)(C(=O)O)N1COC(C(F)F)=C(c2ccccc2)C1=O
4. Cc1cc(=O)n(Cc2ccccc2)c2ccccc12
5. CC1(C)COC(CCc2ccc(NC=NO)cc2)OC1

1. 209 to 211 °C
2. 111 to 112 °C
3. 149 to 151 °C
4. 109 to 111 °C
5. 159 to 160 °C

Please look at the items below and tell me melting point for each one, in order.
1. O=C(O)CC1(CCCCCCCCCCCC2(C(=O)O)CC2)CC1
2. O=[N+]([O-])c1ccc(CCS(=O)(=O)NCc2ccccc2)cc1
3. Cc1nc(-c2cc3cccc(NS(=O)(=O)c4cccs4)c3[nH]2)sc1C

1: 75.3 to 78.9 °C; 2: 125 to 127 °C; 3: 210 to 211 °C

I'm hoping you can list melting point for every molecule here, please.
1. CC(=O)N1CCC2(CC1)Nc1cc(C)ccc1-n1cccc12
2. CCS(=O)(=O)N(C(C)=O)c1cc(-c2ncnc(C(F)F)c2Cl)c(F)cc1C#N
3. CCCCNS(=O)(=O)CC(O)C(O)C(CC1CCCCC1)NC(=O)C(Cc1c[nH]cn1)NS(=O)(=O)CCc1ccccc1 (stereo not drawn)

212 to 213 °C
123 to 124 °C
208 to 210 °C

For each of the items listed, what is its melting point?
1. Cc1cccc(C2(O)CCC(=O)N2C)c1 (stereo not drawn)
2. Cc1nnc2n1-c1ccc(I)cc1C(c1ccccc1F)=NC2C (stereo not drawn)
3. CC(C)(C)NCC(O)c1ccc(O)c(C(O)CO)c1 (stereo not drawn)

1: 128 to 130 °C; 2: 142 to 145 °C; 3: 190 to 192 °C

# batch size: 6; output melting point per entry
1. CCCCc1nnc(S(=O)Cc2ccc([N+](=O)[O-])cc2)n1Cc1ccc(-c2ccccc2-c2nnn[nH]2)cc1 (stereo not drawn)
2. Cc1n[nH]c(CCCCn2cnc(NC(N)=NCC(F)(F)F)n2)n1
3. CN(C)c1noc(-c2ncn3c2COc2cc(F)ccc2-3)n1
4. O=C(Nc1cccc(-c2ccnc3c(C(=O)c4cccs4)cnn23)c1)c1cc(C(F)(F)F)ccc1C(F)(F)F
5. CCCCC(OC)c1nc2c(N)nc3ccccc3c2n1CC(C)C (stereo not drawn)
6. O=[N+]([O-])c1ccc(NC2CCCCC2)c([N+](=O)[O-])c1

1. 222 to 223 °C
2. 175 to 176 °C
3. 239 to 240 °C
4. 208 to 210 °C
5. 125 to 128 °C
6. 153 °C

Lab note: each molecule below needs its melting point filled in.
1. O=C1CCC2CC(c3ccccc3)c3cccc1c32 (stereo not drawn)
2. CCOC(=O)c1c(-c2cccc([N+](=O)[O-])c2)cc(-c2ccccc2)nc1CBr
3. Nc1ncccc1-c1nc2cc(-c3cccnc3)cnc2n1-c1ccc(CNS(=O)(=O)C2CC2)cc1

1. 99 °C
2. 125 to 128 °C
3. 197 to 199 °C

* * *

Could you please report measured melting point for the items listed next?

{"molecule": "O=C(O)CC(CO)C(=O)c1ccc(Cl)c([N+](=O)[O-])c1 (stereo unspecified)", "melting point": "210 to 213 °C"}
{"molecule": "COC1C(O)C(CO)OC1n1cnc2c(N)nc(F)nc21 (stereo unspecified)", "melting point": "239 to 241 °C"}
{"molecule": "CC(C)CNC(=O)Nc1c(C(=O)c2ccccc2)[nH]c2cc(Cl)ccc12", "melting point": "235 to 238 °C"}

Go through the list and state melting point for each entry.
1. CNC(=O)c1ccccc1Nc1nc(Nc2cc3c(cc2OC)CC(=O)NCC3)ncc1Cl
2. CC(=O)OC1CSC(Oc2ccnc(Br)c2)C(OC(C)=O)C1OC(C)=O (stereo unspecified)

1. > 250 °C
2. 162 °C

Would you be so kind as to report melting point for each listed record?
1. CCCCCCS(=O)(=O)c1c(O)cc(C)oc1=O
2. CN(C)C(=O)Sc1ccc2ncc([N+](=O)[O-])c(-c3ccccc3)c2c1
3. NC(=O)CCc1ccc(CNC(=O)[C@@H](CCCNC(N)=N[N+](=O)[O-])NC(=O)C(c2ccccc2)c2ccccc2)cc1
4. CCS(=O)CCNC(=O)C1=C(C(=O)Nc2ccc(Cl)cc2F)CCCC1 (stereo unspecified)

65 to 66 °C
171 to 173 °C
139 to 140 °C
136 to 137 °C

Please go through the list and note melting point for each molecule.
1. CCOC(=O)Cc1ncc2c(n1)-c1ccc(Cl)cc1C(c1ccccc1F)=NC2
2. O=C(NCCCN1CCN(c2ccc(F)cc2OCC(F)(F)F)CC1)c1conc1-c1ccc(F)cc1

1: 98 to 103 °C; 2: 122 to 123 °C

* * *

readout_type: melting point

Study these solved cases before continuing.
{"compound": "COC1=C(OC)C(=O)C2=C(CC(CCCCCCCCN3CCN(c4ccccn4)CC3)C2)C1=O", "melting point": "80 to 84 °C"}
{"compound": "O=C(O)Cc1ccc(NC(=O)C(COc2ccccc2)NS(=O)(=O)c2ccc(I)cc2)cc1 (racemic)", "melting point": "224 to 225 °C"}
{"compound": "Cc1cc(SC(C)C)c(NC(=O)CCCSc2nc3ccccc3s2)c(SC(C)C)n1", "melting point": "116 to 117 °C"}
{"compound": "OC(CNC1CC1)c1cccc(Cl)c1 (stereo unspecified)", "melting point": "71.3 to 73.2 °C"}
{"compound": "COc1cn(C(C)C(=O)N(C)C)nc1-c1ccccc1 (stereo unspecified)", "melting point": "96.5 to 98 °C"}
{"compound": "CC(=O)Nc1nc(CCN2CCC(c3c[nH]c4ccccc34)CC2)cs1", "melting point": "203 to 204 °C"}
{"compound": "Nc1ncnc2c1ncn2Cc1nc2cccc(Cl)c2c(=O)n1-c1ccccc1-c1ccccc1", "melting point": "300 °C"}
{"compound": "COC1CCN(CC=CC(=O)Nc2cc3c(Nc4ccc(F)c(Cl)c4)ncnc3cc2OCC2CC2)CC1", "melting point": "129 to 130 °C"}

// for each compound below, give its melting point
1. CC(=O)NCCOC1=C2C=C(S(N)(=O)=O)SC2S(=O)(=O)CC1 (stereo unspecified)
2. O=C1C2=C(NC(=O)C3(N2)SCCS3)c2ccccc21

177 to 181 °C
> 300 °C

Would you be so kind as to report melting point for each listed record?
1. CC1CC(=O)NN=C1c1ccc2c(ccc(=O)n2C)c1 (stereo unspecified)
2. O=[N+]([O-])c1ccc(-c2ccc3nncn3n2)cc1C(F)(F)F
3. NC(=O)CCC1OC(=O)NC1c1cc(F)c(-n2nnc(Cc3cccs3)n2)c(F)c1 (stereo unspecified)
4. Cn1ccc(O)cc1=O
5. COc1cc2c(Nc3ccc(Oc4ccccc4)cc3)c(C#N)cnc2cc1OCCN1CCC(N2CCCCC2)CC1
6. CC(C)OC(=O)c1cc(-c2nn(C)c(C(F)(F)F)c2CF)c(F)cc1Cl
7. CCCCc1nc2cccnc2n1Cc1ccc2c(Cl)c(C(=O)O)sc2c1
8. Cc1nc(C)c(Cn2nnnc2-c2cccc(Cl)c2Cl)s1

248 to 251 °C
129 to 135 °C
142 to 144 °C
165 to 169 °C
141 °C
74 °C
> 260 °C
174 to 175 °C
